What follows is literature data on IC50 for RON (Homo sapiens, UniProt Q04912).
reported-metric: IC50

[[record]]
query_smiles = "CCc1cccnc1-n1ncc(C(=O)Nc2ccc(Oc3ccnc4[nH]c(=O)n(C(C)C)c34)c(F)c2)c1C(F)(F)F"
meas_value = "< 50 nM"

[[record]]
query_smiles = "Cc1c(C(=O)Nc2ccc(Oc3ccc(O)c(-c4ccnc(N)n4)c3)c(F)c2)c(=O)n(-c2ccccc2)n1CC(C)(C)O"
meas_value = "876 nM"

[[record]]
query_smiles = "Nc1nccc(Oc2ccc(NC(=O)c3cnn(-c4ccccc4F)c3C(F)(F)F)cc2F)c1Cl"
meas_value = "50 to 500 nM"

[[record]]
query_smiles = "CCc1ccnc(-n2ncc(C(=O)Nc3ccc(Oc4ccnc5[nH]c(=O)n(C(C)C)c45)c(F)c3)c2C(F)(F)F)c1"
meas_value = "50 to 500 nM"

[[record]]
query_smiles = "Nc1nccc(Oc2c(F)cc(NC(=O)c3cnn(-c4ncccc4F)c3C(F)(F)F)cc2F)c1C#CCO"
meas_value = "< 50 nM"

[[record]]
query_smiles = "Nc1ncnc(Oc2c(F)cc(NC(=O)c3cnn(-c4ncccc4F)c3C(F)(F)F)cc2F)c1Cl"
meas_value = "< 50 nM"

[[record]]
query_smiles = "Cc1cccnc1-n1ncc(C(=O)Nc2ccc(Oc3ccnc(N)c3Cl)c(F)c2)c1C(F)(F)F"
meas_value = "< 50 nM"


----------
Collected literature values of pIC50 measured for UniProt Q04912.
pIC50: −log10 of the molar value.
reported-metric: pIC50

[[record]]
query_smiles = "CCc1c(C(=O)Nc2ccc(Oc3ccnc4[nH]c(=O)n(C5CCCC5)c34)c(F)c2)cnn1-c1cncnc1"
meas_value = "6.30 to 7.30"

[[record]]
query_smiles = "CCc1c(C(=O)Nc2ccc(Oc3ccnc4[nH]c(=O)n(C(C)C)c34)c(F)c2)cnn1-c1cncnc1"
meas_value = "> 7.30"

[[record]]
query_smiles = "Nc1ncnc(Oc2ccc(NC(=O)c3cnn(-c4cc(O)ccn4)c3C(F)(F)F)cc2F)c1Cl"
meas_value = "6.30 to 7.30"

[[record]]
query_smiles = "CCOc1ccn(-c2ccc(F)cc2)c(=O)c1C(=O)Nc1ccc(Nc2ccc(O)c(-c3ccnc(N)n3)c2)cc1F"
meas_value = 5.64


----------
Assembled from different publications: pIC50 for UniProt Q04912.
pIC50: −log10 of the molar value.
reported-metric: pIC50

[[record]]
query_smiles = "CCOc1cccnc1-n1ncc(C(=O)Nc2ccc(Oc3ccnc4[nH]c(=O)n(C(C)C)c34)c(F)c2)c1C(F)(F)F"
reported_metric = "pIC50"
meas_value = "6.30 to 7.30"

[[record]]
query_smiles = "Nc1nccc(Oc2c(F)cc(NC(=O)c3cnn(-c4ccccc4)c3C(F)(F)F)cc2F)c1C1CC1"
reported_metric = "pIC50"
meas_value = "> 7.30"

[[record]]
query_smiles = "Cc1ccc(-n2ncc(C(=O)Nc3ccc(Oc4ncnc(N)c4Cl)c(F)c3)c2C(F)(F)F)nc1"
reported_metric = "pIC50"
meas_value = "5.30 to 6.30"

[[record]]
query_smiles = "Cc1c(C(=O)Nc2ccc(Oc3ccc(O)c(-c4ccnc(N)n4)c3)c(F)c2)c(=O)n(-c2ccccc2)n1C"
reported_metric = "pIC50"
meas_value = 6.55

[[record]]
query_smiles = "Nc1ncnc(Oc2c(F)cc(NC(=O)c3cnn(-c4ncccc4Cl)c3C(F)(F)F)cc2F)c1Cl"
reported_metric = "pIC50"
meas_value = "> 7.30"

[[record]]
query_smiles = "Nc1nccc(-c2cc(Oc3ccc(NC(=O)c4cc(Br)cn(-c5ccc(F)cc5)c4=O)cc3F)ccc2O)n1"
reported_metric = "pIC50"
meas_value = 6.86

[[record]]
query_smiles = "Nc1ncnc(Oc2ccc(NC(=O)c3cn(-c4ccccc4)nn3)cc2F)c1Cl"
reported_metric = "pIC50"
meas_value = "< 5.30"

[[record]]
query_smiles = "Nc1ncnc(Oc2ccc(NC(=O)c3cnn(-c4cccnn4)c3C(F)(F)F)cc2F)c1Cl"
reported_metric = "pIC50"
meas_value = "6.30 to 7.30"

[[record]]
query_smiles = "CC(C)n1c(=O)[nH]c2nccc(Oc3ccc(NC(=O)c4cnn(-c5ccccc5F)c4C(F)(F)F)cc3F)c21"
reported_metric = "pIC50"
meas_value = "> 7.30"

[[record]]
query_smiles = "Nc1ncnc(Oc2ccc(NC(=O)c3cnn(-c4cccnc4)c3C(F)(F)F)cc2F)c1Cl"
reported_metric = "pIC50"
meas_value = "6.30 to 7.30"

[[record]]
query_smiles = "O=C(Nc1ccc(Oc2ccnc3[nH]c(=O)[nH]c23)c(F)c1)c1ncn(-c2ccccc2)c1C(F)(F)F"
reported_metric = "pIC50"
meas_value = "> 7.30"

[[record]]
query_smiles = "Cc1c(C(=O)Nc2ccc(Oc3ccnc(N)c3Cl)c(F)c2)cnn1-c1ccccc1"
reported_metric = "pIC50"
meas_value = "6.30 to 7.30"

[[record]]
query_smiles = "C#Cc1c(Oc2c(F)cc(NC(=O)c3cnn(-c4ccccn4)c3C(F)(F)F)cc2F)ccnc1N"
reported_metric = "pIC50"
meas_value = "> 7.30"

[[record]]
query_smiles = "Nc1nccc(Oc2c(F)cc(NC(=O)c3cnn(-c4ccccn4)c3C(F)(F)F)cc2F)c1C#CCO"
reported_metric = "pIC50"
meas_value = "> 7.30"

[[record]]
query_smiles = "Nc1nccc(Oc2c(F)cc(NC(=O)c3cnn(-c4ncccn4)c3C(F)(F)F)cc2F)c1Cl"
reported_metric = "pIC50"
meas_value = "> 7.30"

